These measurements were taken from paper PMC5540273.

test system: MAK; details: concentration: 1 μM,replicates: in singlicate; n = 1;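 further: KINOMEscan kinase panel screen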
endpoint-name: %Inh (%)
Respond numerically; units are % and should not be typed.

>  <molecule>
Cc1nnc(-c2ccc3occ(-c4ccc(S(C)=O)cc4)c3n2)o1 (stereo not drawn)

>  <uom>
%

>  <observed-measurement>
0

$$$$

--- query ---
Recall and state the measured %Inh for C[C@@H]1CCN(C(=O)N2CCCC2)C[C@@H]1N(C)c1ncnc2[nH]ccc12 .
14

====

test system: TYK2(JH2domain-pseudokinase); conditions: concentration: 1 μM,replicates: in singlicate; n = 1
# label = True if %Inh < 20% else False

Answered cases to consult:
>  <molecule-smiles>
Cc1ccc(C(=O)Nc2ccc(Oc3ccc4nc(NC(=O)C5CC5)cn4c3)c(F)c2)c(=O)n1-c1ccccc1

>  <group-label>
True

$$$$
>  <molecule-smiles>
CN(c1ccc2c(c1)nc(NCc1ccc(F)cc1)n2C)c1ccnc(Nc2ccc(CS(C)(=O)=O)cc2)n1.Cl

>  <group-label>
True

$$$$
>  <molecule-smiles>
CC(C)c1nc(-c2cccc(NS(=O)(=O)c3ccccc3)c2)c(-c2ccnc(Nc3ccc4c(c3)CN(C)CC4)n2)s1

>  <group-label>
False

$$$$
>  <molecule-smiles>
CCn1c(-c2nonc2N)nc2cncc(Br)c21

>  <group-label>
True

$$$$
>  <molecule-smiles>
C[C@@H](Oc1cc(-n2cnc3cc(-c4ccncc4)ccc32)sc1C(N)=O)c1ccccc1Cl

>  <group-label>
False

$$$$

Input CCCC(=O)Nc1n[nH]c2ncccc12 ; condition: %Inh strictly below 20%. Does it hold?
True

Is %Inh strictly under 20% for the entry CCN1CCN(CCCC(=O)Nc2n[nH]c3nc(-c4ccc(O)cc4)c(Br)cc23)CC1 ?
True

Here's an entry: COc1cc2nccc(Nc3ccc(Oc4ccccc4)cc3)c2cc1OC.Cl . Is its %Inh below 20%?
True

====

test system: CIT; details: concentration: 1 μM,replicates: in singlicate; n = 1
Label Y when %Inh is strictly below 30%; at or above that, label N.

Before answering, review these 10 worked examples.
>  <molecule>
O=C(Nc1n[nH]c2cc(-c3ccco3)ccc12)C1CC1

>  <group-label>
Y

$$$$
>  <molecule>
COc1ccc(Nc2nccc(N3CCC(NC(=O)c4cccc(C#N)c4)C3)n2)cc1 (stereo not drawn)

>  <group-label>
Y

$$$$
>  <molecule>
CCOC(=O)N1CCC(n2cnc(-c3ccc(F)cc3)c2-c2ccnc(N)n2)CC1

>  <group-label>
N

$$$$
>  <molecule>
COc1cccc(OC)c1C(=O)Nc1cccc(-c2nn3ccccc3c2-c2ccnc(Nc3cccc(F)c3)n2)c1

>  <group-label>
N

$$$$
>  <molecule>
CS(=O)c1ccc(-c2coc3ccc(-c4n[nH]c(=O)o4)cc23)cc1 (stereo not drawn)

>  <group-label>
Y

$$$$
>  <molecule>
c1ccc(Oc2ccc(Nc3ccnc4ccc(-c5ccccn5)cc34)cc2)cc1

>  <group-label>
Y

$$$$
>  <molecule>
Cc1ccc(Nc2ccnc(Nc3ccc4c(c3)CS(=O)(=O)C4)n2)cc1O.Cl

>  <group-label>
N

$$$$
>  <molecule>
CS(=O)(=O)c1cccc(CNc2nc(Nc3ccc4c(c3)[C@@H]3C[C@@H]4CNC3=O)ncc2C(F)(F)F)c1

>  <group-label>
N

$$$$
>  <molecule>
CCn1c(-c2nonc2N)nc2cncc(Br)c21

>  <group-label>
Y

$$$$
>  <molecule>
COC(=O)Nc1nc2cc(Oc3ccc(NC(=O)Nc4cc(C(F)(F)F)ccc4Cl)cc3)ccc2[nH]1.Cl

>  <group-label>
N

$$$$

Criterion: %Inh strictly below 30%. Is it met by CN(c1ccc2c(c1)nc(NCc1ccc(F)cc1)n2C)c1ccnc(Nc2ccc(CS(C)(=O)=O)cc2)n1.Cl ?
N

Here's an entry: CSc1nccc(-c2c(-c3ccc(F)cc3)ncn2CCCN2CCOCC2)n1.Cl . Is its %Inh below 30%?
Y

In the record for COC(=O)c1cccc(NC(=O)NC2CCN(c3ccnc(Nc4cc(OC)c(OC)c(OC)c4)n3)C2)c1 (stereo not drawn) , is %Inh less than 30%?
Y

# check: %Inh < 30% for C[C@@H](Oc1cc(-n2cnc3cc(-c4ccncc4)ccc32)sc1C(N)=O)c1ccccc1Cl
Y

%Inh strictly < 30% for this molecule? CS(=O)(=O)Nc1ccc(-c2ccnc3[nH]ccc23)cc1
N

Dear reviewer, please state whether Cc1n[nH]c2cc(Nc3ccnc(Nc4cccc(CN5CCOCC5)c4)n3)ccc12 has %Inh strictly beneath 30%.
N

In the record for Cc1cccc(-c2nc(Nc3ccncc3)c3sccc3n2)n1 , is %Inh less than 30%?
N
